# Tested on: 786-0 renal
# ASSAY PROTOCOL: NCI tumour cell line growth inhibition, 48 h
Parameter: TGI. Scope: all listed entries.

Example molecules with recorded TGI:
MOLECULE | OBSERVED VALUE
O=C(O)CCSC(CC1(c2ccc(Cl)cc2)NC(=O)CCS1)c1ccccc1 (configuration not stated) | 20.9 µM
CC(C)(C)OC/C=C(/CO)[C@@H]1C=C[C@H](O)C1 | > 100 µM
COc1ccc(/C=C2\c3cc(OC)c(OC)cc3CCN2C(=O)c2ccccc2)cc1OC | > 100 µM
Cc1nc2cc(Nc3nc(Nc4ccc(F)cc4)nc(-c4cccs4)n3)ccc2n1Cc1ccccc1 | 9.11 µM
Nc1ccn([C@H]2CO[C@@H](CO)[C@@H]2O)c(=O)n1 | > 100 µM
O=C(Cn1c(-c2ccccc2)cc2ccccc21)N1CCCC1 | > 100 µM
COc1cccc2nc3c(C(=O)NCCN(C)C)cccc3cc12 | 12.5 µM
CC1(C)N=C(N)N=C(N)N1c1ccc(CCCCc2ccc(Cl)c(S(=O)(=O)F)c2)c(Cl)c1 | > 39.7 µM

Q: Hello, please tell me recorded TGI for this one: CN(C)c1ncnc2c1ncn2CCn1cnc2c(N(C)C)ncnc21
Result: > 100 µM

Q: Hello, please tell me recorded TGI for this one: C[C@]12CCC(=O)C=C1CC[C@@H]1C2CC[C@]2(C)Nc3[nH]ncc3CC12 (some centres not stated)
Result: > 100 µM

Q: Hello, please tell me recorded TGI for this one: O=[N+]([O-])c1ccc(CI)cc1
Result: 16.4 µM

Q: Hello, please tell me recorded TGI for this one: Cc1ccc(S(=O)OCc2c(C)c(C)c(COS(=O)c3ccc(C)cc3)c(C)c2C)cc1 (configuration not stated)
Result: > 100 µM

Q: Hello, please tell me recorded TGI for this one: Nc1c(C(=O)c2ccccc2)cnn1-c1ccc(F)cc1
Result: > 25 µM

Q: Hello, please tell me recorded TGI for this one: O=C1C=C(NCCOCCO)C(=O)c2c(O)ccc(O)c21
Result: > 100 µM

Q: Hello, please tell me recorded TGI for this one: O=[N+]([O-])c1ccc(-c2cnc3ccccn23)cc1
Result: > 100 µM

Q: Hello, please tell me recorded TGI for this one: COc1ccc(C(O)(CCC(C)C)C(CN2CCOCC2)c2ccc(Cl)cc2)cc1 (configuration not stated)
Result: 28.6 µM

Q: Hello, please tell me recorded TGI for this one: O=[P@@]1(c2ccccc2)O[C@H](COCc2ccccc2)[C@@H](OCc2ccccc2)[C@H](OCc2ccccc2)[C@H]1NCc1ccccc1
Result: > 100 µM

Q: Hello, please tell me recorded TGI for this one: O=C(O)c1ccc(C(=O)O)c2c(C(=O)O)ccc(C(=O)O)c12
Result: > 100 µM

Q: Hello, please tell me recorded TGI for this one: NCC(=O)Nc1ccc(S(=O)(=O)O)c2cc(S(=O)(=O)O)cc(S(=O)(=O)O)c12
Result: > 100 µM

Q: Hello, please tell me recorded TGI for this one: Cc1nc2ccc(F)cc2c2c1CCN2c1ccc(Cl)cc1
Result: 34.9 µM

Q: Hello, please tell me recorded TGI for this one: BrCc1cccc(C[P+](c2ccccc2)(c2ccccc2)c2ccccc2)c1
Result: > 100 µM

Q: Hello, please tell me recorded TGI for this one: O=C1CCC/C=C\C[C@H]2C=CC(=O)/C2=C/C[C@H](C/C=C\CC(F)(F)F)O1
Result: 0.677 µM

* * *

# Tested on: BT-549 breast
# ASSAY PROTOCOL: NCI tumour cell line growth inhibition, 48 h; in the data active means GI50 below about 0.43 µM; inactive means the rest
Answer with one of the outcomes Y = active, N = inactive

MOLECULE | ASSIGNED CLASS
COc1ccc(Cn2c(N)c(S(=O)(=O)c3ccc(Cl)cc3)c3nc(C#N)c(C#N)nc32)cc1 | N

Q: Please let me know the test result on file for CCOC(=O)c1c(-c2ccc(OC)cc2)c(C#N)c2c(C#N)c(N)nn2c1N .
Result: N

Q: Please let me know the test result on file for C=CCc1ccc(O)c(-c2ccc(O)c(CC=C)c2)c1 .
Result: N

Q: Please let me know the test result on file for CN1CC[C@@H](c2c(O)cc(O)c3c(=O)cc(-c4ccc(C(F)(F)F)cc4Cl)oc23)[C@@H]1CO .
Result: N

Q: Please let me know the test result on file for CCN(Cc1ccc(F)cc1)c1ccc(CO)c(Br)c1 .
Result: N

Q: Please let me know the test result on file for C[C@H](Nc1cc(Cl)nc2c1cnn2[C@@H]1O[C@H](COP(=O)(O)CP(=O)(O)O)[C@@H](O)[C@H]1O)c1ccccc1F .
Result: N

Q: Please let me know the test result on file for CN(C)c1ccc(N=Nc2ccccn2)c(O)c1 .
Result: Y

Q: Please let me know the test result on file for CC1(C)N=C(N)N=C(N)N1c1ccc(CCCCc2ccc(Cl)c(S(=O)(=O)F)c2)c(Cl)c1 .
Result: N

Q: Please let me know the test result on file for COc1ccc(C2=C(c3ccc(OC)cc3)C(=O)N3CCCC3C2)cc1 (configuration not stated) .
Result: N

Q: Please let me know the test result on file for C#Cc1nc(Nc2cc(C)[nH]n2)c2ccccc2n1 .
Result: Y

Q: Please let me know the test result on file for CN(C)C(=S)Sc1ccc([N+](=O)[O-])cc1[N+](=O)[O-] .
Result: N

Q: Please let me know the test result on file for COC(=O)C1=CN(CC2=CC(=O)C(C)=CC2=O)C=C(C(=O)OC)C1c1cccc(OC)c1 .
Result: N

* * *

# System: HCT-15 colon
# ASSAY PROTOCOL: NCI tumour cell line growth inhibition, 48 h
PARAMETER: TGI

COMPOUND | STUDY SYSTEM | TGI
CS/C(=C(\S)c1ccccc1)c1ccccc1 | HCT-15 colon | > 100 µM

Q: Hello, please tell me recorded TGI for this one: O=S(=O)(c1ccccc1)N1N=C2c3ccccc3CCC[C@H]2C1c1ccccc1 (stereo partly drawn)
Result: > 100 µM

Q: Hello, please tell me recorded TGI for this one: Nc1ccn([C@H]2CO[C@@H](CO)[C@@H]2O)c(=O)n1
Result: > 100 µM

Q: Hello, please tell me recorded TGI for this one: C(=C\c1ccc(-c2cn3cc(/C=C/C=N/NC4=NCCN4)ccc3n2)cc1)/C=N/NC1=NCCN1
Result: > 100 µM

Q: Hello, please tell me recorded TGI for this one: O=C(NNC(=O)c1ccccc1O)c1cccc(Br)c1
Result: > 100 µM

* * *

# Test system: LOX IMVI melanoma
# ASSAY PROTOCOL: NCI tumour cell line growth inhibition, 48 h; in the data active = GI50 below about 0.43 µM; inactive = the rest
Answer with one of the outcomes active, inactive

COMPOUND | STUDY SYSTEM | ASSIGNED CLASS
C=CCc1ccc(O)c(-c2ccc(O)c(CC=C)c2)c1 | LOX IMVI melanoma | inactive
CN(C)CCC(=O)C(=Cc1ccc(O)cc1)C(=O)CCN(C)C | LOX IMVI melanoma | inactive
CC(C(=O)O)c1cccc(Oc2ccccc2)c1 (centres undefined) | LOX IMVI melanoma | inactive
COc1ccc(C2=C(c3ccc(OC)cc3)C(=O)N3CCCC3C2)cc1 (centres undefined) | LOX IMVI melanoma | inactive
C[C@@]12CCC[C@@](C)(C(=O)O)C1CC[C@]13CC(=O)[C@](CO)(C1)[C@@H](O)CC32 (some centres undefined) | LOX IMVI melanoma | inactive

Q: Please let me know the test result on file for O=C1c2cccc3cccc(c23)C(=O)N1CCCCCN1CCN(CCCCCOc2ccc(-c3nc4ccc(N5CCOCC5)cc4[nH]3)cc2)CC1 .
Result: inactive

* * *

# Tested on: HOP-62 NSCLC
# ASSAY PROTOCOL: NCI tumour cell line growth inhibition, 48 h; in the data active = GI50 below about 0.43 µM; inactive = the rest
Answer with one of the outcomes yes = active, no = inactive

MOLECULE | STUDY SYSTEM | ASSIGNED CLASS
COc1ccccc1Nc1ncc(-c2ccccc2)o1 | HOP-62 NSCLC | no
Nc1ccn(C2OC(CO)C(O)C2O)c(=O)n1 (stereo not drawn) | HOP-62 NSCLC | yes
O=C1CCC/C=C\C[C@H]2C=CC(=O)/C2=C/C[C@H](C/C=C\CC(F)(F)F)O1 | HOP-62 NSCLC | yes
O=C1c2cc3c(cc2-c2c1c1cc(Cl)c(Cl)cc1c(=O)n2C[C@H](O)CO)OCO3 | HOP-62 NSCLC | yes
CN1CC[C@@H](c2c(O)cc(O)c3c(=O)cc(-c4ccc(C(F)(F)F)cc4Cl)oc23)[C@@H]1CO | HOP-62 NSCLC | no

Q: Please let me know the test result on file for O=[N+]([O-])c1cccc2ccc(N/N=C/c3ccccc3O)nc12 .
Result: no

Q: Please let me know the test result on file for COc1cc(/C=C/C(=O)c2cccc(-n3cc(-c4ccc(Cl)cc4)[nH]c3=O)c2)ccc1O .
Result: no

Q: Please let me know the test result on file for CCOC(=O)c1c(-c2ccc(OC)cc2)c(C#N)c2c(C#N)c(N)nn2c1N .
Result: no

Q: Please let me know the test result on file for COC(=O)c1ccc2c(c1)/C(=C\c1cc(Br)c(O)c(Br)c1)C(=O)N2 .
Result: no

Q: Please let me know the test result on file for COc1ccc2c(c1)c[n+](C)c1c3cc(OC)c(OC)cc3ccc21 .
Result: no

Q: Please let me know the test result on file for C/C(=N\NC(=S)N1CCCCCC1)c1ccccn1 .
Result: yes

Q: Please let me know the test result on file for CCN(Cc1ccc(F)cc1)c1ccc(CO)c(Br)c1 .
Result: no

Q: Please let me know the test result on file for CSc1nc(NC2OC(COC(C)=O)C(OC(C)=O)C(OC(C)=O)C2OC(C)=O)c(N=CC=Nc2c(NC3OC(COC(C)=O)C(OC(C)=O)C(OC(C)=O)C3OC(C)=O)nc(SC)n(C)c2=O)c(=O)n1C (stereo not drawn) .
Result: no
